target: recombinant human GST-SYK (Homo sapiens); construct: purchased Carna Biosciences 08-176; experiment: Homogeneous Time-Resolved Fluorescence (HTRF) assay for the recombinant human Syk enzyme; format: biochemical; settings: HTRF assay, recombinant human GST-SYK; IC50 given as class symbols; read-out: rhSYK Activity
Please respond with reported IC50 for every item in the list.

[
  {
    "compound": "Cc1cc(Nc2nccc(C(F)(F)F)n2)cc(-c2ccc(C(=O)N3CCS(=O)(=O)CC3)nc2)c1 [Example 16.55]",
    "measurement": "< 0.1 µM"
  }
]

Respectfully, I request IC50 for each entry included below.
1. Cc1cc(Nc2nccc(C3CC3)n2)cc(-c2ccc(N[C@H]3CC[C@H](C(=O)O)CC3)nc2)c1 [Example 2.104]
2. CCCCOC(=O)[C@H]1CC[C@H](C(C)(O)c2ccc(-c3cc(C)cc(Nc4nccc(C5CC5)n4)c3)cn2)CC1 (relative stereo) [Example 9.48]
3. Cc1cc(Nc2nccc(C(F)(F)F)n2)cc(-c2ccnc(N3CCN(C)CC3)c2)c1 [Example 15.61]
4. Cc1cc(Nc2nccc(C(F)(F)F)n2)cc(-c2ccc(NCCc3cnc[nH]3)nc2)c1 [Example 7.24]
5. Cc1cc(Nc2nccc(C(F)(F)F)n2)cc(-c2ccc(C(NC(N)=O)(C3CC3)C3CC3)nc2)c1 [Example 19.1]
6. Cc1cc(Nc2nccc(C(F)(F)F)n2)cc(-c2ccc(N[C@@H](CC(C)C)C(=O)O)nc2)c1 [Example 7.111]

1: < 0.1 µM; 2: 0.1 to 1 µM; 3: 0.1 to 1 µM; 4: 0.1 to 1 µM; 5: < 0.1 µM; 6: < 0.1 µM

Respectfully, I request IC50 for each entry included below.
1. Cc1cc(Nc2nccc(C(F)(F)F)n2)cc(-c2cncc(C(C)(O)CO)c2)c1 (stereo not drawn) [Example 9.68]
2. Cc1cc(Nc2nccc(C(F)(F)F)n2)cc(-c2ccncc2)c1 [Example 2.124]
3. CC(=O)Nc1cc(Nc2nccc(C(F)(F)F)n2)cc(-c2ccc(N3CCNC(=O)C3)nc2)c1 [Example 7.5]
4. Cc1cc(Nc2nccc(C(F)(F)F)n2)cc(-c2cncc(C(C)(O)C(F)(F)F)c2)c1 (stereo not drawn) [Example 2.75]

1. < 0.1 µM
2. < 0.1 µM
3. < 0.1 µM
4. < 0.1 µM

Respectfully, I request IC50 for each entry included below.
1. CC(=O)N1CCCN(c2ccc(-c3cc(C)cc(Nc4nccc(C(F)(F)F)n4)c3)cn2)CC1 [Example 7.59]
2. Cc1cc(Nc2nccc(C(F)(F)F)n2)cc(-c2ccc(C(F)(F)CO)nc2)c1 [Example 2.117]
3. Cc1cc(Nc2nccc(C(F)(F)F)n2)cc(-c2ccnc(N[C@@H]3CCC(=O)NC3)c2)c1 [Example 15.66]
4. Cc1cc(Nc2nccc(C(F)(F)F)n2)cc(-c2ccc(NCC(C)(C)O)nc2)c1 [Example 7.44]

< 0.1 µM
< 0.1 µM
< 0.1 µM
< 0.1 µM

----------
molecular target: recombinant human GST-SYK (Homo sapiens, UniProt P43405); construct: purchased Carna Biosciences 08-176; test: Homogeneous Time-Resolved Fluorescence (HTRF) assay for the recombinant human Syk enzyme; assay type: biochemical; details: HTRF assay, recombinant human GST-SYK; IC50 given as class symbols; read-out: rhSYK Activity
pIC50: −log10 of the molar value.
measure name: pIC50

// known answers, use as guide
[
  {
    "molecule": "Cc1cc(Nc2nccc(C(F)(F)F)n2)cc(-c2ccc(NC(C)(C)C(=O)O)nc2)c1",
    "pIC50": "> 7.00"
  },
  {
    "molecule": "Cc1cc(Nc2nccc(C(F)(F)F)n2)cc(-c2ccc(NC3(C(N)=O)CC3)nc2)c1",
    "pIC50": "> 7.00"
  },
  {
    "molecule": "Cc1cc(Nc2ncc(Br)c(C(F)(F)F)n2)cc(-c2ccc(NC(C)(C)C(=O)O)nc2)c1",
    "pIC50": "> 7.00"
  }
]

Respectfully, I request pIC50 for each entry included below.
1. Cc1cc(Nc2ncc(F)c(C3CC3)n2)cc(-c2ccc(NC3CCNC3=O)nc2)c1 (stereo not shown)
2. Cc1cc(Nc2nccc(C(F)(F)F)n2)cc(-c2ccc(N3CC(C)NC(C)C3)nc2)c1 (stereo not shown)
3. O=C(O)CCc1cccc(-c2cccc(Nc3nccc(C(F)(F)F)n3)c2)n1
4. CCCOC1CCCN(c2ccc(-c3cc(C)cc(Nc4nccc(C(F)(F)F)n4)c3)cn2)C1 (stereo not shown)
5. Cc1cc(Nc2nccc(C(F)(F)F)n2)cc(-c2ccc(C(=O)N3CCN(CC(F)(F)F)CC3)nc2)c1
6. Cc1cc(Nc2nccc(C)n2)cc(-c2cccc(CCC(=O)O)n2)c1
7. O=C(O)CCc1ccnc(-c2cccc(Nc3nccc(C(F)(F)F)n3)c2)c1
8. Cc1cc(Nc2nccc(C(F)(F)F)n2)cc(-c2cncc(C3(O)CCC(C(=O)O)C3)c2)c1 (stereo not shown) [Example 9.5]

> 7.00
> 7.00
6.00 to 7.00
6.00 to 7.00
6.00 to 7.00
6.00 to 7.00
6.00 to 7.00
> 7.00
